Please respond with reported % Cell Viability at 50 nM for every item in the list.
# target of assay: T1, human CD98, endogenously expressed on Molt-4 human acute lymphoblastic leukemia cells (human)
# T1 chain: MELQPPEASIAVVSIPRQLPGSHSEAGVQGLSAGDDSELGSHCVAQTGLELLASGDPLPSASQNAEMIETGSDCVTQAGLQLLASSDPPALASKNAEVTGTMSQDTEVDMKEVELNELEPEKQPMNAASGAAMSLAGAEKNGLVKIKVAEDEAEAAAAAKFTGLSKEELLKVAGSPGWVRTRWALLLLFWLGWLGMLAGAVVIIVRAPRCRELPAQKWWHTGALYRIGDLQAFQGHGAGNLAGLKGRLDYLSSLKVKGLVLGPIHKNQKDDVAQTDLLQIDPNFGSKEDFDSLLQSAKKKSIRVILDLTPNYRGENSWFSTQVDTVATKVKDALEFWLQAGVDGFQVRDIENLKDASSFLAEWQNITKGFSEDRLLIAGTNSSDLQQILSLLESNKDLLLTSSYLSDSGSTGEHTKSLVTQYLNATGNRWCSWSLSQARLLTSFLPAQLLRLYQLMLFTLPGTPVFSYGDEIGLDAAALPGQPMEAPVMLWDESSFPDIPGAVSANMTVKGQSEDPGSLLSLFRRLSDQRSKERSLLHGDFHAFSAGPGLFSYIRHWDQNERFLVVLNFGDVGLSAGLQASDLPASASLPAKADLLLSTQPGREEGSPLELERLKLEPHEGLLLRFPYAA
# assay remarks: cell-based or functional assay
Please state the figure in %; there is no need to write the unit.

Ask: What measured % Cell Viability at 50 nM goes with CD98 (CL-huAb104)-ZZ (antibody, human IgG1, kappa, L234A L235A, V domains shown, synthon ZZ on reduced interchain cysteines (sites not given)) VH: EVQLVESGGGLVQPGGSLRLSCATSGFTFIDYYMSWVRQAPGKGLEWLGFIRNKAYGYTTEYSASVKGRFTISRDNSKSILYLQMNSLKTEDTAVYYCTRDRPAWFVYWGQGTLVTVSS VL: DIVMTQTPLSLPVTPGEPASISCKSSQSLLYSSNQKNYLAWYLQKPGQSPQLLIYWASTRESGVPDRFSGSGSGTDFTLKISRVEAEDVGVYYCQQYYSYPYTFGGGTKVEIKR ?
Result: 6.5

Ask: What measured % Cell Viability at 50 nM goes with CD98 (CL-huAb104)-YY (antibody, human IgG1, kappa, L234A L235A, V domains shown, synthon YY on reduced interchain cysteines (sites not given)) VH: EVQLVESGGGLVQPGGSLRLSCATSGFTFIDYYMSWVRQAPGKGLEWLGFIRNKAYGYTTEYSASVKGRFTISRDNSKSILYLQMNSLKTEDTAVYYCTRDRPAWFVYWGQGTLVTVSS VL: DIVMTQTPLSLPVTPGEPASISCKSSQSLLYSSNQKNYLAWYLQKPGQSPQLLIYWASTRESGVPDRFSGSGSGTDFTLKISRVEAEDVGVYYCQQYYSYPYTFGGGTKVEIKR ?
Result: 2.7

Ask: What measured % Cell Viability at 50 nM goes with CD98 (CL-huAb108)-YY (antibody, human IgG1, kappa, L234A L235A, V domains shown, synthon YY on reduced interchain cysteines (sites not given)) VH: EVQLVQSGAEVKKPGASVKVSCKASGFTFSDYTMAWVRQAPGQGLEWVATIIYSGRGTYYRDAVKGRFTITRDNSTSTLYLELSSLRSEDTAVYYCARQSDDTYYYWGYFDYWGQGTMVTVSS VL: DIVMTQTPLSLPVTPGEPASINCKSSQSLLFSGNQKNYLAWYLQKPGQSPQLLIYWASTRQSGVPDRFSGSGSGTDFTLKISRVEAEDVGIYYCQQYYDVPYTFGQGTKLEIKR ?
Result: 2.9
